Property: IC50, μg/ml COX-1; scope: individual molecules
Target: COX-1 (Mus musculus, UniProt P22437)
Sequence (P22437 27-602): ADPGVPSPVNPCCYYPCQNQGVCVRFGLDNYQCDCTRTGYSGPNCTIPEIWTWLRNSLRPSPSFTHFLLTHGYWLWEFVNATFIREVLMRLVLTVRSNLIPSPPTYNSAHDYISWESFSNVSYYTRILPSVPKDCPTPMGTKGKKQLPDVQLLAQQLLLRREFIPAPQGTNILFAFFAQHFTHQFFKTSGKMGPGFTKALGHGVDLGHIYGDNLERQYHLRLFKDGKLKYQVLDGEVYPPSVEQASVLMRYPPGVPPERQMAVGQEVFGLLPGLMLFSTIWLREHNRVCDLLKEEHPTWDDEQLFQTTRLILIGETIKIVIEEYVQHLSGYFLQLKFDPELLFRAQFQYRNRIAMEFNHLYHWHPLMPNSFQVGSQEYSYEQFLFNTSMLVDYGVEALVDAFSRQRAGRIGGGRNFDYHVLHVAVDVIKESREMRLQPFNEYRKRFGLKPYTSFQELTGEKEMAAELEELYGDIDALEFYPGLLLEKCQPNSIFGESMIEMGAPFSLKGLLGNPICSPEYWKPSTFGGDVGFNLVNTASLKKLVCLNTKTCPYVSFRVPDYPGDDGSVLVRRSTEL
Test: Evaluation of COX-1 activity: PGE2 formation in mouse peritoneal macrophages without aspirin and LPS treatment
Format: cell-based

>  <molecule>
CC1(C)OC(c2ccc(S(C)(=O)=O)cc2)=C(c2ccco2)C1=O

>  <IC50, μg/ml COX-1 [µg/mL]>
30

$$$$
>  <molecule>
CC1(C)OC(c2ccc(S(C)(=O)=O)c(Br)c2)=C(c2cc(F)cc(F)c2)C1=O

>  <IC50, μg/ml COX-1 [µg/mL]>
50

$$$$
>  <molecule>
CC1(C)OC(c2ccc(S(N)(=O)=O)cc2F)=C(c2cccc(F)c2)C1=O

>  <IC50, μg/ml COX-1 [µg/mL]>
10

$$$$
>  <molecule>
C[S+]([O-])c1ccc(C2=C(c3cccc(F)c3)C(=O)C(C)(C)O2)cc1F (centres unmarked)

>  <IC50, μg/ml COX-1 [µg/mL]>
20

$$$$
>  <molecule>
CSc1ccc(C2=C(c3cc(F)cc(F)c3)C(=O)C(C)(C)O2)cc1Br

>  <IC50, μg/ml COX-1 [µg/mL]>
30

$$$$
>  <molecule>
CC1(C)OC(c2ccc(S(C)(=O)=O)c(F)c2)=C(c2cc(F)ccc2F)C1=O

>  <IC50, μg/ml COX-1 [µg/mL]>
30

$$$$
>  <molecule>
CC1(C)OC(c2ccc(S(C)(=O)=O)c(F)c2)=C(c2cccc(F)c2)C1=O

>  <IC50, μg/ml COX-1 [µg/mL]>
200

$$$$
>  <molecule>
CC1(C)OC(c2ccc(S(C)(=O)=O)cc2)=C(c2ccc(C(C)(C)C)cc2)C1=O

>  <IC50, μg/ml COX-1 [µg/mL]>
50

$$$$

====

Molecular target: COX-2 (Mus musculus)
Sequence (Q05769 18-604): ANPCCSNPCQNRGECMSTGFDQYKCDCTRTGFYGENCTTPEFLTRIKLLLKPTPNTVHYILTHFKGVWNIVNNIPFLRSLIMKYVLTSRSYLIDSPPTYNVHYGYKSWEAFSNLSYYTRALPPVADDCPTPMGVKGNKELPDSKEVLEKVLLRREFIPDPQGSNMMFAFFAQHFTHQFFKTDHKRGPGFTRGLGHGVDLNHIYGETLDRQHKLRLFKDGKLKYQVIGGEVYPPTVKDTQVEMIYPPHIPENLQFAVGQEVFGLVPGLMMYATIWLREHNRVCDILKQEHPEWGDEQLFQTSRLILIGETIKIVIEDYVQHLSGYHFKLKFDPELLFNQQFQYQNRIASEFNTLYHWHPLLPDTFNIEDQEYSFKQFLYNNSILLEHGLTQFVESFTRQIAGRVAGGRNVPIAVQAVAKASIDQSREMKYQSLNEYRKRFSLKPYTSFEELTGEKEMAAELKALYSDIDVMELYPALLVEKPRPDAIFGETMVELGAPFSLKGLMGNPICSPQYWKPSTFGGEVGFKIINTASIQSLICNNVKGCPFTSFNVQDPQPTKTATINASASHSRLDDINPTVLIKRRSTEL
Experiment: Evaluation of COX-2 activity: PGE2 formation in aspirin-treated, LPS-stimulated mouse peritoneal macrophages
Assay type: cell-based
Each record is given Fulfilled if its reported IC50, μg/ml COX-2 is strictly below 0.05 µg/mL. Records at or above 0.05 µg/mL are given Not fulfilled.

>  <compound>
C[S+]([O-])c1ccc(C2=C(c3cccc(F)c3)C(=O)C(C)(C)O2)cc1 (centres unmarked)

>  <label>
Not fulfilled

$$$$
>  <compound>
CC1(C)OC(c2ccc(S(C)(=O)=O)c(F)c2)=C(c2ccc(C(F)(F)F)cc2)C1=O

>  <label>
Fulfilled

$$$$
>  <compound>
CC(C)c1ccc(C2=C(c3ccc(S(C)(=O)=O)cc3)OC(C)(C)C2=O)cc1

>  <label>
Fulfilled

$$$$
>  <compound>
CC1(C)OC(c2ccc(S(C)(=O)=O)c(Cl)c2)=C(c2ccc(F)c(F)c2)C1=O

>  <label>
Fulfilled

$$$$
>  <compound>
CC1(C)OC(c2ccc(S(N)(=O)=O)c(F)c2)=C(c2ccc(F)c(F)c2)C1=O

>  <label>
Fulfilled

$$$$
>  <compound>
CCC1(C)OC(c2ccc(S(N)(=O)=O)cc2)=C(c2ccc(C(C)=O)cc2)C1=O (centres unmarked)

>  <label>
Fulfilled

$$$$
>  <compound>
CC1(C)OC(c2ccc(S(N)(=O)=O)cc2)=C(c2ccc(F)c(F)c2)C1=O

>  <label>
Fulfilled

$$$$
>  <compound>
CC1(C)OC(c2ccc(S(N)(=O)=O)c(Cl)c2)=C(c2cccc(Cl)c2)C1=O

>  <label>
Fulfilled

$$$$
>  <compound>
CCC1(CC)OC(c2ccc(S(C)(=O)=O)cc2)=C(c2ccc(OC)c(F)c2)C1=O

>  <label>
Fulfilled

$$$$
>  <compound>
CC1(C)OC(c2ccc(S(C)(=O)=O)c(Br)c2)=C(c2ccccc2)C1=O

>  <label>
Not fulfilled

$$$$
>  <compound>
CC1(C)OC(c2ccc(S(N)(=O)=O)c(F)c2)=C(c2cccc(Cl)c2)C1=O

>  <label>
Fulfilled

$$$$
>  <compound>
CC(O)c1ccc(C2=C(c3ccc(S(C)(=O)=O)cc3)OC(C)(C)C2=O)cc1 (centres unmarked)

>  <label>
Not fulfilled

$$$$

====

Property: melting point; scope: individual molecules

>  <molecule>
CC1(C)OC(c2ccc(S(N)(=O)=O)cc2F)=C(c2ccc(F)cc2)C1=O [Example 334]

>  <melting point>
95 to 97 °C

$$$$
>  <molecule>
CC1(C)OC(c2ccc(S(N)(=O)=O)cc2F)=C(c2ccccc2)C1=O [Example 332]

>  <melting point>
79 to 81 °C

$$$$
>  <molecule>
C[S+]([O-])c1ccc(C2=C(c3ccccc3)C(=O)C(C)(C)O2)cc1F (centres unmarked) [Example 291]

>  <melting point>
149 to 150 °C

$$$$
>  <molecule>
CC1(C)OC(c2ccc(S(C)(=O)=O)cc2F)=C(c2cccc(Cl)c2)C1=O [Example 322]

>  <melting point>
139 to 140 °C

$$$$
>  <molecule>
CC1(C)OC(c2ccc(S(C)(=O)=O)cc2)=C(c2cccc(C(F)(F)F)c2)C1=O [Example 14]

>  <melting point>
115 to 116 °C

$$$$

====

Property: IC50, μg/ml COX-1; scope: individual molecules
Molecular target: COX-1 (Mus musculus)
Test: Evaluation of COX-1 activity: PGE2 formation in mouse peritoneal macrophages without aspirin and LPS treatment
Format: cell-based

>  <molecule>
CC1(C)OC(c2ccc(S(C)(=O)=O)cc2F)=C(c2cccc(Cl)c2)C1=O [Example 322]

>  <measurement-units>
µg/mL

>  <IC50, μg/ml COX-1>
3

$$$$
>  <molecule>
CC1(C)OC(c2ccc(S(C)(=O)=O)c(Br)c2)=C(c2cccc(F)c2)C1=O [Example 343]

>  <measurement-units>
µg/mL

>  <IC50, μg/ml COX-1>
50

$$$$
>  <molecule>
CC1(C)OC(c2ccc(S(N)(=O)=O)cc2)=C(c2ccc(Cl)c(Cl)c2)C1=O [Example 127]

>  <measurement-units>
µg/mL

>  <IC50, μg/ml COX-1>
0.12

$$$$
>  <molecule>
CC1(C)OC(c2ccc(S(C)(=O)=O)cc2)=C(c2cccs2)C1=O [Example 113]

>  <measurement-units>
µg/mL

>  <IC50, μg/ml COX-1>
3

$$$$
>  <molecule>
COc1cccc(C2=C(c3ccc(S(C)(=O)=O)cc3)OC(C)(C)C2=O)c1 [Example 95]

>  <measurement-units>
µg/mL

>  <IC50, μg/ml COX-1>
30

$$$$
>  <molecule>
CC1(C)OC(c2ccc(S(C)(=O)=O)cc2)=C(c2ccccc2O)C1=O [Example 105]

>  <measurement-units>
µg/mL

>  <IC50, μg/ml COX-1>
50

$$$$
>  <molecule>
C[S+]([O-])c1ccc(C2=C(c3ccccc3)C(=O)C(C)(C)O2)cc1F (stereo not drawn) [Example 291]

>  <measurement-units>
µg/mL

>  <IC50, μg/ml COX-1>
3

$$$$
>  <molecule>
CC1(C)OC(c2ccc(S(N)(=O)=O)c(F)c2)=C(c2cccc(Cl)c2)C1=O [Example 305]

>  <measurement-units>
µg/mL

>  <IC50, μg/ml COX-1>
0.3

$$$$
>  <molecule>
CC1(C)OC(c2ccc(S(C)(=O)=O)cc2F)=C(c2ccc(F)cc2)C1=O [Example 324]

>  <measurement-units>
µg/mL

>  <IC50, μg/ml COX-1>
3

$$$$
>  <molecule>
CC1(C)OC(c2ccc(S(N)(=O)=O)cc2)=C(c2cccc(F)c2)C1=O [Example 129]

>  <measurement-units>
µg/mL

>  <IC50, μg/ml COX-1>
1.02

$$$$
>  <molecule>
CC1(C)OC(c2ccc(S(C)(=O)=O)cc2)=C(c2cccc(N)c2)C1=O [Example 66]

>  <measurement-units>
µg/mL

>  <IC50, μg/ml COX-1>
50

$$$$
>  <molecule>
CC1(C)OC(c2ccc(S(C)(=O)=O)cc2)=C(c2ccsc2)C1=O [Example 17]

>  <measurement-units>
µg/mL

>  <IC50, μg/ml COX-1>
30

$$$$

====

Target: COX-1 (Mus musculus, UniProt P22437)
Assay: Evaluation of COX-1 activity: PGE2 formation in mouse peritoneal macrophages without aspirin and LPS treatment
Assay type: cell-based
Each record is given 1 if its reported IC50, μg/ml COX-1 is strictly below 10 µg/mL. Records at or above 10 µg/mL are given -1.

>  <compound>
CCC1(CC)OC(c2ccc(S(C)(=O)=O)cc2)=C(c2ccc(F)c(Cl)c2)C1=O

>  <label>
1

$$$$
>  <compound>
Cc1ccc(C2=C(c3ccc(S(C)(=O)=O)cc3)OC(C)(C)C2=O)s1

>  <label>
1

$$$$
>  <compound>
CC1(C)OC(c2ccc(S(N)(=O)=O)cc2)=C(c2cc(Cl)cc(Cl)c2)C1=O

>  <label>
1

$$$$
>  <compound>
Cn1cc(C2=C(c3ccc(S(N)(=O)=O)cc3)OC(C)(C)C2=O)cn1

>  <label>
-1

$$$$
>  <compound>
CCCCc1ccc(C2=C(c3ccc(S(C)(=O)=O)cc3)OC(C)(C)C2=O)cc1

>  <label>
1

$$$$
>  <compound>
CC(O)c1ccc(C2=C(c3ccc(S(C)(=O)=O)cc3)OC(C)(C)C2=O)cc1 (centres unmarked)

>  <label>
-1

$$$$
>  <compound>
CNS(=O)(=O)c1ccc(C2=C(c3ccccc3)C(=O)C(C)(C)O2)cc1Cl

>  <label>
-1

$$$$
